Below, each entry is listed with its recorded EC50.
- testedOn: T1, SARS-COV-2 RBD (SARS-COV-2, UniProt P0DTC2 319-539)
- T1 construct: also called WT RBD
- assayProtocol: ELISA, RBD coated
Could you give me the number in ng/mL? Just the number is fine.

Sample records with EC50:
binder	unitsText	readoutNumber
C1007 (antibody, V domains shown, IgG; V domains only) VH: QVQLVQSGSEMKKPGSSVKVSCKAAGGTLNTHTFSWVRQAPGQGLEWMGRITPTVDLTNYAQKFQGRITITADTSTNTAYLELRRLRSEDTAIYYCATPLNDYYASGNLGLWGQGTLVTVSS VL: DIQMTQSPSSLSASIGDTVTITCRASQGISYYLAWFQRKPGKAPKSLIYDASSLQSGVPSKFSGSGSGTDFTLTISSLQPEDSATYYCQQYSTYPLTFGGGTKVEIK	ng/mL	3.22
C997 (antibody, V domains shown, IgG; V domains only) VH: EVQLLESGGGLVQPGGSLRLSCAASGFTFSKDAMSWVRQAPGKGLEWVSTVTGSGTNTYYADSVKGRFTISRDNSNNTLYLQMNSLRAEDTAVYYCANHPLGAAEGYYYYYMDVWGKGTTVTVSS VL: EIVLTQSPGTLSLSPGERGTLSCRASQRVPSSQLAWYQQKSGQAPRLLIYGASSRASGIPDRFSGSGSGTDFTLNISRLEPEDFAVYYCQQYGSLRALTFGGGTKVEIK	ng/mL	3.49
C884 (antibody, V domains shown, IgG; V domains only) VH: QVQLQQWGAGLLKPSETLSLTCVVYGGSFSAYYWSWIRQPPGKGLEWIGEINHSGSTNYKSSLQSRVTISVDTSKNQFSLKLSSVTAADTAVYYCARETGTYGTFDHWGQGTLVTVSS VL: EIVLTQSPGTLSLSPGERATLSCRASQSVSSTYLAWYQQKPGQAPRLLIYGASSRATGIPDRFSGSGSGTDFTLTISRLEPEDFAVYYCQQYAFSVWTFGQGTKVEI	ng/mL	4.22
C850 (antibody, V domains shown, IgG; V domains only) VH: QVQLQESGPGLVKPSETLSLICSVSGVSVSSRNFFWSWIRQPPGKGLEWIGYMSYGGNTNYNPSLKSRVTISIDTSKNQFSLKLSSVTAADTAVYYCARETYYYDRSGYYSSDGFDYWGQGILVTVSS VL: EIVLTQSPGTLSLSPGERATLSCRASQSITSSSLAWYQQKRGQPPRLLIYGASSRATGIPDRFSGSGSGTDLTLTISRLEPEDFAVYYCQQYGNSPYTFGQGTKLEIK	ng/mL	3.7

Next up:
Query C963 (antibody, V domains shown, IgG; V domains only) VH: QVQLVQSGAEVKKPGSSVRVSCKASGGTFSSFTITWVRQAPGQGLEWMGRIIPNLNIPNYAQRFQGRITITAEKSTSTAYLELSSLRSEDTAVYYCARGVGYSGSGSNWYFDLWGRGTLVTVSS VL: QSVLTQPPSVSGAPGQRVTISCTGSSSNIGAGYDVHWYQQLPGTAPKLLISGHINRPSGVPDRFSGSTSGTSASLAITGLQAEDEADYYCQSYDSSLSDSVFGGGTKLTV yields EC50 of 2.96
